Test system: Staphylococcus aureus
Experiment: Potency index, ratio of Vancomycin MIC to test compound MIC for antibacterial activity against Vancomycin-resistant Staphylococcus aureus 1
Type: functional
Hi, to clarify the labels: Y covers Ratio from 800 upward, N covers anything below 800.

Answered cases to consult:
[[record]]
smiles_representation = "CN[C@H](CC(C)C)C(=O)N[C@H]1C(=O)N[C@@H](CC(N)=O)C(=O)N[C@H]2C(=O)N[C@H]3C(=O)N[C@H](C(=O)N[C@H](C(=O)O)c4cc(O)cc(O)c4-c4cc3ccc4O)[C@H](O)c3ccc(c(Cl)c3)Oc3cc2cc(c3O[C@@H]2O[C@H](CO)[C@@H](O)[C@H](O)[C@H]2O[C@H]2C[C@](C)(NCc3ccc(C(=O)NCCC[N+](C)(C)Cc4ccc(-c5ccccc5)cc4)cc3)[C@H](O)[C@H](C)O2)Oc2ccc(cc2Cl)[C@H]1O"
assigned_class = "N"

[[record]]
smiles_representation = "CCCCCCCCNC(=O)C[N+](C)(C)CCCNC(=O)c1ccc(CN[C@@]2(C)C[C@H](O[C@H]3[C@H](Oc4c5cc6cc4Oc4ccc(cc4Cl)[C@@H](O)[C@@H](NC(=O)[C@@H](CC(C)C)NC)C(=O)N[C@@H](CC(N)=O)C(=O)N[C@H]6C(=O)N[C@H]4C(=O)N[C@H](C(=O)N[C@H](C(=O)O)c6cc(O)cc(O)c6-c6cc4ccc6O)[C@H](O)c4ccc(c(Cl)c4)O5)O[C@H](CO)[C@@H](O)[C@@H]3O)O[C@@H](C)[C@H]2O)cc1"
assigned_class = "N"

[[record]]
smiles_representation = "CCCCCCCCCCNC(=O)c1ccc(CN[C@@]2(C)C[C@H](O[C@H]3[C@H](Oc4c5cc6cc4Oc4ccc(cc4Cl)[C@@H](O)[C@@H](NC(=O)[C@@H](CC(C)C)NC)C(=O)N[C@@H](CC(N)=O)C(=O)N[C@H]6C(=O)N[C@H]4C(=O)N[C@H](C(=O)N[C@H](C(=O)O)c6cc(O)cc(O)c6-c6cc4ccc6O)[C@H](O)c4ccc(c(Cl)c4)O5)O[C@H](CO)[C@@H](O)[C@@H]3O)O[C@@H](C)[C@H]2O)cc1"
assigned_class = "N"


Q. Does CCCCCCCCCCNC(=O)C[N+](C)(C)CCCNC(=O)c1ccc(CN[C@@]2(C)C[C@H](O[C@H]3[C@H](Oc4c5cc6cc4Oc4ccc(cc4Cl)[C@@H](O)[C@@H](NC(=O)[C@@H](CC(C)C)NC)C(=O)N[C@@H](CC(N)=O)C(=O)N[C@H]6C(=O)N[C@H]4C(=O)N[C@H](C(=O)N[C@H](C(=O)O)c6cc(O)cc(O)c6-c6cc4ccc6O)[C@H](O)c4ccc(c(Cl)c4)O5)O[C@H](CO)[C@@H](O)[C@@H]3O)O[C@@H](C)[C@H]2O)cc1 have a reported Ratio of at least 800?
A. Y

----------
Tested on: Staphylococcus aureus
Experiment: Potency index, ratio of Vancomycin MIC to test compound MIC for antibacterial activity against Vancomycin-resistant Staphylococcus aureus 1
Type: functional
Quick list: Ratio per entry.
Just the number, please.

[[record]]
smiles_representation = "CCCCCCNC(=O)C[N+](C)(C)CCCNC(=O)c1ccc(CN[C@@]2(C)C[C@H](O[C@H]3[C@H](Oc4c5cc6cc4Oc4ccc(cc4Cl)[C@@H](O)[C@@H](NC(=O)[C@@H](CC(C)C)NC)C(=O)N[C@@H](CC(N)=O)C(=O)N[C@H]6C(=O)N[C@H]4C(=O)N[C@H](C(=O)N[C@H](C(=O)O)c6cc(O)cc(O)c6-c6cc4ccc6O)[C@H](O)c4ccc(c(Cl)c4)O5)O[C@H](CO)[C@@H](O)[C@@H]3O)O[C@@H](C)[C@H]2O)cc1"
experimental_readout = "Ratio"
observed_value = 10


Proceed to the following item.
Q. I have this molecule here, CCCCCCCCNC(=O)c1ccc(CN[C@@]2(C)C[C@H](O[C@H]3[C@H](Oc4c5cc6cc4Oc4ccc(cc4Cl)[C@@H](O)[C@@H](NC(=O)[C@@H](CC(C)C)NC)C(=O)N[C@@H](CC(N)=O)C(=O)N[C@H]6C(=O)N[C@H]4C(=O)N[C@H](C(=O)N[C@H](C(=O)O)c6cc(O)cc(O)c6-c6cc4ccc6O)[C@H](O)c4ccc(c(Cl)c4)O5)O[C@H](CO)[C@@H](O)[C@@H]3O)O[C@@H](C)[C@H]2O)cc1 , and I need its recorded Ratio.
A. 166

----------
Test: Induction of hemolysis in human erythrocytes incubated for 1 hr by microtiter plater reader analysis
Format: toxicity, cell-based, Erythrocyte
experimental readout: HC50 at 1 h

Past entries and their recorded results:
[[record]]
smiles_representation = "CN[C@H](CC(C)C)C(=O)N[C@H]1C(=O)N[C@@H](CC(N)=O)C(=O)N[C@H]2C(=O)N[C@H]3C(=O)N[C@H](C(=O)N[C@H](C(=O)O)c4cc(O)cc(O)c4-c4cc3ccc4O)[C@H](O)c3ccc(c(Cl)c3)Oc3cc2cc(c3O[C@@H]2O[C@H](CO)[C@@H](O)[C@H](O)[C@H]2O[C@H]2C[C@](C)(NCc3ccc(C(=O)NCCC[N+](C)(C)Cc4ccc(-c5ccccc5)cc4)cc3)[C@H](O)[C@H](C)O2)Oc2ccc(cc2Cl)[C@H]1O"
experimental_readout = "HC50 at 1 h"
observed_value = "> 250 µM"

[[record]]
smiles_representation = "CCCCCCCCNC(=O)c1ccc(CN[C@@]2(C)C[C@H](O[C@H]3[C@H](Oc4c5cc6cc4Oc4ccc(cc4Cl)[C@@H](O)[C@@H](NC(=O)[C@@H](CC(C)C)NC)C(=O)N[C@@H](CC(N)=O)C(=O)N[C@H]6C(=O)N[C@H]4C(=O)N[C@H](C(=O)N[C@H](C(=O)O)c6cc(O)cc(O)c6-c6cc4ccc6O)[C@H](O)c4ccc(c(Cl)c4)O5)O[C@H](CO)[C@@H](O)[C@@H]3O)O[C@@H](C)[C@H]2O)cc1"
experimental_readout = "HC50 at 1 h"
observed_value = "> 250 µM"


Proceed to the following item.
Q. I have this compound here, CCCCCCCCNC(=O)C[N+](C)(C)CCCNC(=O)c1ccc(CN[C@@]2(C)C[C@H](O[C@H]3[C@H](Oc4c5cc6cc4Oc4ccc(cc4Cl)[C@@H](O)[C@@H](NC(=O)[C@@H](CC(C)C)NC)C(=O)N[C@@H](CC(N)=O)C(=O)N[C@H]6C(=O)N[C@H]4C(=O)N[C@H](C(=O)N[C@H](C(=O)O)c6cc(O)cc(O)c6-c6cc4ccc6O)[C@H](O)c4ccc(c(Cl)c4)O5)O[C@H](CO)[C@@H](O)[C@@H]3O)O[C@@H](C)[C@H]2O)cc1 , and I need its recorded HC50 at 1 h.
A. > 250 µM

----------
Test system: Staphylococcus aureus
Test: Antibacterial activity against Vancomycin-resistant Staphylococcus aureus 4 assessed as inhibition of bacterial growth incubated for 18 to 24 hrs by CLSI microbroth dilution method
Type: functional
Conditions: time 18-24 hrs
Quick list: MIC per entry.
Report the value in µM with no unit label.

[[record]]
smiles_representation = "CN[C@H](CC(C)C)C(=O)N[C@H]1C(=O)N[C@@H](CC(N)=O)C(=O)N[C@H]2C(=O)N[C@H]3C(=O)N[C@H](C(=O)N[C@H](C(=O)O)c4cc(O)cc(O)c4-c4cc3ccc4O)[C@H](O)c3ccc(c(Cl)c3)Oc3cc2cc(c3O[C@@H]2O[C@H](CO)[C@@H](O)[C@H](O)[C@H]2O[C@H]2C[C@](C)(NCc3ccc(C(=O)NCCC[N+](C)(C)Cc4ccccc4)cc3)[C@H](O)[C@H](C)O2)Oc2ccc(cc2Cl)[C@H]1O"
unit_text = "µM"
observed_value = 30.5


Proceed to the following item.
Q. What value of MIC on Staphylococcus aureus does CCCCCCCCCCCCCCNC(=O)c1ccc(CN[C@@]2(C)C[C@H](O[C@H]3[C@H](Oc4c5cc6cc4Oc4ccc(cc4Cl)[C@@H](O)[C@@H](NC(=O)[C@@H](CC(C)C)NC)C(=O)N[C@@H](CC(N)=O)C(=O)N[C@H]6C(=O)N[C@H]4C(=O)N[C@H](C(=O)N[C@H](C(=O)O)c6cc(O)cc(O)c6-c6cc4ccc6O)[C@H](O)c4ccc(c(Cl)c4)O5)O[C@H](CO)[C@@H](O)[C@@H]3O)O[C@@H](C)[C@H]2O)cc1 have?
A. 4

----------
Tested on: Enterococcus
Test: Potency index, ratio of Vancomycin MIC to test compound MIC for antibacterial activity against Vancomycin-resistant Enterococci NR30903
Type: functional, NR 30903
Quick list: Ratio per entry.
Just the number, please.

[[record]]
smiles_representation = "CCCCCCCCCCNC(=O)C[N+](C)(C)CCCNC(=O)c1ccc(CN[C@@]2(C)C[C@H](O[C@H]3[C@H](Oc4c5cc6cc4Oc4ccc(cc4Cl)[C@@H](O)[C@@H](NC(=O)[C@@H](CC(C)C)NC)C(=O)N[C@@H](CC(N)=O)C(=O)N[C@H]6C(=O)N[C@H]4C(=O)N[C@H](C(=O)N[C@H](C(=O)O)c6cc(O)cc(O)c6-c6cc4ccc6O)[C@H](O)c4ccc(c(Cl)c4)O5)O[C@H](CO)[C@@H](O)[C@@H]3O)O[C@@H](C)[C@H]2O)cc1"
experimental_readout = "Ratio"
observed_value = 1384

[[record]]
smiles_representation = "CCCCCCCCCCCCCCNC(=O)C[N+](C)(C)CCCNC(=O)c1ccc(CN[C@@]2(C)C[C@H](O[C@H]3[C@H](Oc4c5cc6cc4Oc4ccc(cc4Cl)[C@@H](O)[C@@H](NC(=O)[C@@H](CC(C)C)NC)C(=O)N[C@@H](CC(N)=O)C(=O)N[C@H]6C(=O)N[C@H]4C(=O)N[C@H](C(=O)N[C@H](C(=O)O)c6cc(O)cc(O)c6-c6cc4ccc6O)[C@H](O)c4ccc(c(Cl)c4)O5)O[C@H](CO)[C@@H](O)[C@@H]3O)O[C@@H](C)[C@H]2O)cc1"
experimental_readout = "Ratio"
observed_value = 780


Q. I have this molecule here, CN[C@H](CC(C)C)C(=O)N[C@H]1C(=O)N[C@@H](CC(N)=O)C(=O)N[C@H]2C(=O)N[C@H]3C(=O)N[C@H](C(=O)N[C@H](C(=O)O)c4cc(O)cc(O)c4-c4cc3ccc4O)[C@H](O)c3ccc(c(Cl)c3)Oc3cc2cc(c3O[C@@H]2O[C@H](CO)[C@@H](O)[C@H](O)[C@H]2O[C@H]2C[C@](C)(NCc3ccc(C(=O)NCCC[N+](C)(C)Cc4ccc(-c5ccccc5)cc4)cc3)[C@H](O)[C@H](C)O2)Oc2ccc(cc2Cl)[C@H]1O , and I need its recorded Ratio.
A. 47
